Data origin, for the record: ChEMBL document CHEMBL5291721

Here, each record is paired with measured AC50 data.
Target: Alpha-1A adrenergic receptor (Homo sapiens); further: assay procedure not described here
Sequence (P35348 whole entry): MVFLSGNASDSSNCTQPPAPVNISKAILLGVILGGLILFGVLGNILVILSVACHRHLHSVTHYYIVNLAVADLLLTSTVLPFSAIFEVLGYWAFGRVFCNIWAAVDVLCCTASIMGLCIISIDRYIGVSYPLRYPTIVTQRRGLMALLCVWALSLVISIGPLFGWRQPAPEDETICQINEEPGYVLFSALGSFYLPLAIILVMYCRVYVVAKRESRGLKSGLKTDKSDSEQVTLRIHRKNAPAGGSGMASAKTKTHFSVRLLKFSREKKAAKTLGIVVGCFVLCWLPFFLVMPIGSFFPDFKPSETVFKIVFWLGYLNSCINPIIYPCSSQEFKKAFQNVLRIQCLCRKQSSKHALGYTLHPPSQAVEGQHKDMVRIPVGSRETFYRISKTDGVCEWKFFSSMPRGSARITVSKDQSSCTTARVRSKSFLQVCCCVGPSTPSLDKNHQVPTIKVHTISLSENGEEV
Assay type: functional, cell-based

Would you please look over these solved cases?
**Q:** Param item = CC(C)c1c(C(=O)Nc2ccccc2)c(-c2ccccc2)c(-c2ccc(F)cc2)n1CC[C@@H](O)C[C@@H](O)CC(=O)O [ATORVASTATIN] ; retrieve measured AC50.
**A:** > 30 µM

**Q:** Param item = CCN(CC)CCNC(=O)c1cc(Cl)c(N)cc1OC [METOCLOPRAMIDE] ; retrieve measured AC50.
**A:** > 30 µM

**Q:** Param item = COc1ccc(C(=O)NCc2ccc(OCCN(C)C)cc2)cc1OC [ITOPRIDE] ; retrieve measured AC50.
**A:** > 30 µM

**Q:** Param item = CCC(C(=O)O)c1ccc(CC(C)C)cc1 (centres undefined) [BUTIBUFEN] ; retrieve measured AC50.
**A:** > 30 µM

**Q:** Param item = CC(C)C(=O)OCC(=O)[C@@]12O[C@H](C3CCCCC3)O[C@@H]1C[C@H]1[C@@H]3CCC4=CC(=O)C=C[C@]4(C)[C@H]3[C@@H](O)C[C@@]12C [CICLESONIDE] ; retrieve measured AC50.
**A:** > 30 µM

Others:
**Q:** Param item = COC(=O)[C@@H]1CC2=CC(=O)CC[C@]2(C)[C@@]23O[C@@H]2C[C@@]2(C)[C@@H](CC[C@@]24CCC(=O)O4)[C@H]13 [EPLERENONE] ; retrieve measured AC50.
**A:** > 30 µM

**Q:** Param item = CN(C)CCCN1c2ccccc2CCc2ccc(Cl)cc21 [CLOMIPRAMINE] ; retrieve measured AC50.
**A:** 1.4 µM

**Q:** Param item = C=C1C[C@@H]2[C@H](CC[C@]3(C)C(=O)CC[C@@H]23)[C@@]2(C)C=CC(=O)C=C12 [EXEMESTANE] ; retrieve measured AC50.
**A:** > 30 µM

**Q:** Param item = COC(=O)N[C@H](C(=O)N1CCC[C@H]1c1nc(-c2ccc(-c3ccc(-c4c[nH]c([C@@H]5CCCN5C(=O)[C@@H](NC(=O)OC)C(C)C)n4)cc3)cc2)c[nH]1)C(C)C ; retrieve measured AC50.
**A:** > 30 µM

**Q:** Param item = CC(=O)c1ccc2c(c1)N(CCCN1CCN(CCO)CC1)c1ccccc1S2 [ACETOPHENAZINE] ; retrieve measured AC50.
**A:** 0.0045 µM

* * *

Molecular target: 5-hydroxytryptamine receptor 2A (Homo sapiens, UniProt P28223); further: assay procedure not described here
Sequence (P28223 whole entry): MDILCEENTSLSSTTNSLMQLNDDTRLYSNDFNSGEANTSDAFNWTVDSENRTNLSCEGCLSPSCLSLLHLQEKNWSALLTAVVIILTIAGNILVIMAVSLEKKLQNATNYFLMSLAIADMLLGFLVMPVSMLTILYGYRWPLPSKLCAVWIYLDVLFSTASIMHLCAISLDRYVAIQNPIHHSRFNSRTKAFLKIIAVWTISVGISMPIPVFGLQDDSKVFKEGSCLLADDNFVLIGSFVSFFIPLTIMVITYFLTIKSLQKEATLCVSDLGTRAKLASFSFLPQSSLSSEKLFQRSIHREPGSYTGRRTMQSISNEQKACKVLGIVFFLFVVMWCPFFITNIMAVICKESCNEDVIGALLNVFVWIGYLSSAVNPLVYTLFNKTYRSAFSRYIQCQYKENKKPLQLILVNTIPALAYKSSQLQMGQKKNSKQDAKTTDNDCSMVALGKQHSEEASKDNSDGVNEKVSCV
Type: functional, cell-based
Here, each record is paired with measured AC50 data.

Would you please look over these solved cases?
**Q:** Param item = Cc1ccc(-c2nc3ccc(C)cn3c2CC(=O)N(C)C)cc1 ; retrieve measured AC50.
**A:** > 30 µM

**Q:** Param item = NC(CO)C(=O)NNCc1ccc(O)c(O)c1O (stereo not given) [BENSERAZIDE] ; retrieve measured AC50.
**A:** > 30 µM

**Q:** Param item = COc1ccc2c(c1)C(=O)N(CCc1ccc(S(=O)(=O)NC(=O)NC3CCCCC3)cc1)C(=O)C2(C)C ; retrieve measured AC50.
**A:** 13 µM

Others:
**Q:** Param item = CC(N)Cc1ccccc1 (stereo not given) ; retrieve measured AC50.
**A:** > 30 µM

**Q:** Param item = CCCCCOC(=O)Nc1nc(=O)n([C@@H]2O[C@H](C)[C@@H](O)[C@H]2O)cc1F ; retrieve measured AC50.
**A:** > 30 µM

* * *

// endpoint AC50 / system Muscarinic acetylcholine receptor M2 (Homo sapiens); further: assay procedure not described here

**Q:** Checklist item: AC50 tested on Muscarinic acetylcholine receptor M2 (Homo sapiens), entry Sc1ncnc2nc[nH]c12 [MERCAPTOPURINE ANHYDROUS] , value?; further: assay procedure not described here
Sequence (P08172 whole entry): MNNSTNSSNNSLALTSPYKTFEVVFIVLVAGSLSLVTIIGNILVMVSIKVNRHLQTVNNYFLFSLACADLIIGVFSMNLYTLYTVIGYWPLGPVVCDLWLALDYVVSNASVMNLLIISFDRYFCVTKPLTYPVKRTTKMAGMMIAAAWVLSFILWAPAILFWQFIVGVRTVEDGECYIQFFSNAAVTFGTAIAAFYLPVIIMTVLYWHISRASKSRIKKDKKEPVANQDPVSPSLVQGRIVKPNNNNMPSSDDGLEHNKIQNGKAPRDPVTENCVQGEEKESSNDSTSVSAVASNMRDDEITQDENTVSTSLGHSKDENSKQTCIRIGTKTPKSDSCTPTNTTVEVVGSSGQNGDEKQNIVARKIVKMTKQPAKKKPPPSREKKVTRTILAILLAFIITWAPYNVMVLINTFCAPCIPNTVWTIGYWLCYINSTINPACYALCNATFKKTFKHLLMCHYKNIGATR
**A:** > 30 µM

**Q:** Checklist item: AC50 tested on Muscarinic acetylcholine receptor M2 (Homo sapiens), entry C[C@@H]1O[C@@H](OC[C@H]2O[C@@H](Oc3c(-c4ccc(OCCO)c(OCCO)c4)oc4cc(OCCO)cc(O)c4c3=O)[C@H](O)[C@@H](O)[C@@H]2O)[C@H](O)[C@H](O)[C@H]1O [TROXERUTIN] , value?; further: assay procedure not described here
**A:** > 30 µM

**Q:** Checklist item: AC50 tested on Muscarinic acetylcholine receptor M2 (Homo sapiens), entry CN1CCC2=C(C1)c1ccccc1Cc1ccccc12 [SETIPTILINE] , value?; further: assay procedure not described here
**A:** 0.855 µM

Then there is this molecule:
**Q:** Checklist item: AC50 tested on Muscarinic acetylcholine receptor M2 (Homo sapiens), entry C#C[C@]1(O)CC[C@H]2[C@@H]3CCc4cc(O)ccc4[C@H]3CC[C@@]21C [ETHINYL ESTRADIOL] , value?; further: assay procedure not described here
**A:** > 30 µM

* * *

Target: Alpha-2A adrenergic receptor (Homo sapiens); further: assay procedure not described here
Sequence (P08913 whole entry): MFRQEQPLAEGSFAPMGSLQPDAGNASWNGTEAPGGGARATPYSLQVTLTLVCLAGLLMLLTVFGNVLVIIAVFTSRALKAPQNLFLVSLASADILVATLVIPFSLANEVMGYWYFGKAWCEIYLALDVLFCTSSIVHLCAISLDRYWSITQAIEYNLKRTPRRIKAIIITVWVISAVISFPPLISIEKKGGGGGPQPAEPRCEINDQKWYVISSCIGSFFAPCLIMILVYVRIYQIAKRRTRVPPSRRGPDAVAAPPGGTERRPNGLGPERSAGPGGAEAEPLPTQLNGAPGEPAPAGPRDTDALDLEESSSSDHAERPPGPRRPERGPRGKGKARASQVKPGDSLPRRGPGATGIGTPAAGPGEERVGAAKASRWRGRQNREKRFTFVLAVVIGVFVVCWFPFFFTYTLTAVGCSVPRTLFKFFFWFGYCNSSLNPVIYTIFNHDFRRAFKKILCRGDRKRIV
Format: functional, cell-based
Readout label: AC50

Would you please look over these solved cases?
**Q:** Checklist item: AC50 tested on Alpha-2A adrenergic receptor (Homo sapiens), entry Cc1cc2c(OCC(CNC(C)(C)C)OC(=O)c3ccccc3)cccc2[nH]1 (stereo not drawn) , value?; further: assay procedure not described here
**A:** > 30 µM

**Q:** Checklist item: AC50 tested on Alpha-2A adrenergic receptor (Homo sapiens), entry CN1C(=O)COc2c(C(=O)NC3CN4CCC3CC4)cc(Cl)cc21 (stereo not drawn) , value?; further: assay procedure not described here
**A:** > 30 µM

**Q:** Checklist item: AC50 tested on Alpha-2A adrenergic receptor (Homo sapiens), entry CCCCC(C)(O)C/C=C/[C@H]1[C@H](O)CC(=O)[C@@H]1CCCCCCC(=O)OC (stereo partly drawn) , value?; further: assay procedure not described here
**A:** > 30 µM

**Q:** Checklist item: AC50 tested on Alpha-2A adrenergic receptor (Homo sapiens), entry NS(=O)(=O)c1cc2c(cc1Cl)NC(CC1CCCC1)NS2(=O)=O (stereo not drawn) [CYCLOPENTHIAZIDE] , value?; further: assay procedure not described here
**A:** > 30 µM

Others:
**Q:** Checklist item: AC50 tested on Alpha-2A adrenergic receptor (Homo sapiens), entry CCOC(=O)[C@H](CCc1ccccc1)N[C@@H](C)C(=O)N1CCC[C@H]1C(=O)O , value?; further: assay procedure not described here
**A:** > 10 µM

* * *

Biological target: Histamine H2 receptor (Homo sapiens); further: assay procedure not described here
Sequence (P25021 whole entry): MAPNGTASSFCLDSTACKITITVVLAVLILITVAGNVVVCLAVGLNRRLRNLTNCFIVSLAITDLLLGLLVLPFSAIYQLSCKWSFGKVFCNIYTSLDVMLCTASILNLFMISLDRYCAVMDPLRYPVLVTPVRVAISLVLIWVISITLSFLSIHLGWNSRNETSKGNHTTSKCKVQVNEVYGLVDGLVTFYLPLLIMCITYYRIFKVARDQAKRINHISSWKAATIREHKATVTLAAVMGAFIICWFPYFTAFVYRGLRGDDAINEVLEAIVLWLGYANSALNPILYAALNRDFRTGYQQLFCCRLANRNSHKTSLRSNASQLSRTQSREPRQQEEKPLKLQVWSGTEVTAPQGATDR
Type: functional, cell-based
Readout label: AC50

Would you please look over these solved cases?
**Q:** Param item = NS(=O)(=O)c1cc(-c2nnn[nH]2)c(NCc2cccs2)cc1Cl [AZOSEMIDE] ; retrieve measured AC50.
**A:** > 30 µM

**Q:** Param item = CCCCC(C)(O)C/C=C/[C@H]1[C@H](O)CC(=O)[C@@H]1CCCCCCC(=O)OC (some centres undefined) ; retrieve measured AC50.
**A:** > 30 µM

**Q:** Param item = COC(=O)C1=C(C)NC(C)=C(C(=O)OCC(C)C)C1c1ccccc1[N+](=O)[O-] (centres undefined) ; retrieve measured AC50.
**A:** > 30 µM

**Q:** Param item = Cc1ccc(-c2nc3ccc(C)cn3c2CC(=O)N(C)C)cc1 ; retrieve measured AC50.
**A:** > 10 µM

**Q:** Param item = CN1CC[C@]23CCCC[C@H]2[C@H]1Cc1ccc(O)cc13 ; retrieve measured AC50.
**A:** > 30 µM

Others:
**Q:** Param item = N[C@@H](C(=O)N[C@@H]1C(=O)N2C(C(=O)O)=C(Cl)CS[C@H]12)c1ccccc1 [CEFACLOR ANHYDROUS] ; retrieve measured AC50.
**A:** > 30 µM

**Q:** Param item = NC(=O)c1cnccn1 [PYRAZINAMIDE] ; retrieve measured AC50.
**A:** > 30 µM

**Q:** Param item = COC(=O)[C@H]1[C@@H](OC(=O)c2ccccc2)C[C@@H]2CC[C@H]1N2C ; retrieve measured AC50.
**A:** > 30 µM

**Q:** Param item = O=C(OCCN1CCOCC1)c1cccnc1Nc1cccc(C(F)(F)F)c1 [MORNIFLUMATE] ; retrieve measured AC50.
**A:** > 30 µM

**Q:** Param item = COc1ccccc1OCC(O)COC(N)=O (centres undefined) ; retrieve measured AC50.
**A:** > 10 µM

**Q:** Param item = CCN(CC)CCNC(=O)c1cc(Cl)c(N)cc1OC [METOCLOPRAMIDE] ; retrieve measured AC50.
**A:** > 10 µM

**Q:** Param item = Cc1cccc(C)c1NC(=O)C1CCCCN1C (centres undefined) [MEPIVACAINE] ; retrieve measured AC50.
**A:** > 30 µM

**Q:** Param item = CN[C@@H](C)[C@H](O)c1ccccc1 ; retrieve measured AC50.
**A:** > 10 µM

**Q:** Param item = CN(C)CCCN1c2ccccc2Sc2ccccc21 ; retrieve measured AC50.
**A:** > 10 µM

**Q:** Param item = CCC(=O)OCC(=O)[C@@]1(OC(=O)CC)[C@H](C)C[C@H]2[C@H]3[C@H]([C@@H](O)C[C@@]21C)[C@@]1(C)C=CC(=O)C=C1C[C@H]3Cl [ALCLOMETASONE DIPROPIONATE] ; retrieve measured AC50.
**A:** > 30 µM

**Q:** Param item = CC/C=C\C/C=C\C/C=C\CCCCCCCC(=O)O ; retrieve measured AC50.
**A:** > 30 µM

**Q:** Param item = CCCCCN(C)CCC(O)(P(=O)(O)O)P(=O)(O)O ; retrieve measured AC50.
**A:** > 30 µM

**Q:** Param item = O=C(CCCCC(=O)Nc1c(I)cc(I)c(C(=O)O)c1I)Nc1c(I)cc(I)c(C(=O)O)c1I [IODIPAMIDE] ; retrieve measured AC50.
**A:** > 30 µM

**Q:** Param item = Nc1ccc(/N=N/c2ccccc2)c(N)n1 ; retrieve measured AC50.
**A:** > 30 µM

**Q:** Param item = CN1C(=O)CC(=O)N(c2ccccc2)c2cc(Cl)ccc21 ; retrieve measured AC50.
**A:** > 10 µM

**Q:** Param item = CO/N=C(\C(=O)N[C@@H]1C(=O)N2C(C(=O)OCOC(=O)C(C)(C)C)=C(C)CS[C@H]12)c1csc(N)n1 ; retrieve measured AC50.
**A:** > 30 µM

**Q:** Param item = C#C[C@]1(O)CC[C@H]2[C@@H]3CCC4=CCCC[C@@H]4[C@H]3CC[C@@]21C ; retrieve measured AC50.
**A:** > 30 µM

**Q:** Param item = CC(C(=O)O)c1ccc(N2CC=CC2)c(Cl)c1 (centres undefined) ; retrieve measured AC50.
**A:** > 10 µM

**Q:** Param item = CC1=CC(=O)c2ccccc2C1=O ; retrieve measured AC50.
**A:** > 30 µM

**Q:** Param item = CN(C/C=C/c1ccccc1)Cc1cccc2ccccc12 ; retrieve measured AC50.
**A:** > 10 µM

**Q:** Param item = COc1c(N2CCNC(C)C2)c(F)cc2c(=O)c(C(=O)O)cn(C3CC3)c12 (centres undefined) ; retrieve measured AC50.
**A:** > 30 µM

**Q:** Param item = O=C(O)CCn1c2c(c3ccccc31)C[C@H](NS(=O)(=O)c1ccc(F)cc1)CC2 ; retrieve measured AC50.
**A:** > 30 µM

**Q:** Param item = NC[C@H]1CC[C@H](C(=O)O)CC1 ; retrieve measured AC50.
**A:** > 30 µM

**Q:** Param item = CNC(=O)c1cc(Oc2ccc(NC(=O)Nc3ccc(Cl)c(C(F)(F)F)c3)cc2)ccn1 ; retrieve measured AC50.
**A:** > 30 µM
